test: Half life in Sprague-Dawley rat at 1 mg/kg,SC measured upto 48 hrs by LC-MS/MS analysis; format: ADME, organism-based; settings: in vivo
Peptide text beside a SMILES is read from it.
Metric name: half-life

q: Quick check: half-life of C[C@@H](O)[C@@H]1NC(=O)[C@H](Cc2c[nH]c3ccccc23)NC(=O)[C@@H]2CCCN2C(=O)[C@H](CCCNC(=N)N)NC(=O)[C@H](Cc2c[nH]cn2)NC(=O)[C@H](CCCCN)NC(=O)[C@H]([C@@H](C)O)NC1=O (cyclo(HRPWTTK)) ?
a: 54 min

###

Molecular target: CCN family member 2 (Homo sapiens) (UniProt P29279)
Sequence (whole entry): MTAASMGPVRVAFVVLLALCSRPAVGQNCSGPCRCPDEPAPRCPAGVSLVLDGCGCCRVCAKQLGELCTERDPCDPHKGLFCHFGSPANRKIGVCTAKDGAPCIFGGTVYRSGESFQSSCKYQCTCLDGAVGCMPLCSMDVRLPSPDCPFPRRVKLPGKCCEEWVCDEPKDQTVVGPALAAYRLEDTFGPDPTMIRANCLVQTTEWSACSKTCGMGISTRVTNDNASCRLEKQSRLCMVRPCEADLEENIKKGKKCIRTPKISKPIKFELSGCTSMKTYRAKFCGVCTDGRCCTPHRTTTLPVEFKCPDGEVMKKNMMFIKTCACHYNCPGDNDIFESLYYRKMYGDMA
Experiment: Inhibition of recombinant human CCN2 CT domain expressed in human […] cells assessed as reduction in fibronectin synthesis at 100 uM incubated for 24 hrs by Western blotting assay
Type: cell-based
The source made the active and inactive calls. The calls are words filed in the database; no cut-off is given here. Peptide text beside a SMILES is read from it.
Metric name: inhibition

q: Hi! What's the reported inhibition for C[C@@H](O)[C@H](N)C(=O)N[C@@H](CCCCN)C(=O)N[C@@H](Cc1c[nH]cn1)C(=O)N[C@@H](CCCNC(=N)N)C(=O)N1CCC[C@H]1C(=O)N[C@@H](Cc1c[nH]c2ccccc12)C(=O)N[C@H](C(N)=O)[C@@H](C)O (H-TKHRPWT-NH2) on CCN family member 2 (Homo sapiens) (UniProt P29279)?
a: Active

q: Hi! What's the reported inhibition for C[C@@H](O)[C@H](N)C(=O)N[C@@H](Cc1c[nH]cn1)C(=O)N[C@@H](CCCCN)C(=O)N[C@@H](CCCNC(=N)N)C(=O)N1CCC[C@H]1C(=O)N[C@@H](Cc1c[nH]c2ccccc12)C(=O)N[C@H](C(N)=O)[C@@H](C)O (H-THKRPWT-NH2) on CCN family member 2 (Homo sapiens) (UniProt P29279)?
a: Active

q: Hi! What's the reported inhibition for C[C@@H](O)[C@H](N)C(=O)N[C@H](C(=O)N[C@@H](Cc1c[nH]cn1)C(=O)N[C@@H](Cc1c[nH]cn1)C(=O)N[C@@H](CCCNC(=N)N)C(=O)N1CCC[C@H]1C(=O)N[C@@H](Cc1c[nH]c2ccccc12)C(=O)N[C@H](C(N)=O)[C@@H](C)O)[C@@H](C)O (H-TTHHRPWT-NH2) on CCN family member 2 (Homo sapiens) (UniProt P29279)?
a: Active

###

molecular target: CCN family member 2 (Homo sapiens); assay: Inhibition of recombinant human CCN2 CT domain expressed in human […] cells assessed as reduction in fibronectin synthesis at 100 uM incubated for 24 hrs by Western blotting assay; type: cell-based
Activity calls are given as the source filed them. The calls are words filed in the database; no cut-off is given here. Peptide text beside a SMILES is read from it.
I would appreciate it if you answered using one of these outcomes: active, inactive

Please review the following examples before continuing.
q: Could you kindly confirm the outcome this assay logged for C[C@H](N)C(=O)N[C@@H](CC(=O)O)C(=O)N[C@H](C(=O)N[C@H](C(=O)N[C@@H](Cc1c[nH]cn1)C(=O)N[C@@H](Cc1c[nH]cn1)C(=O)N[C@@H](CCCNC(=N)N)C(=O)N1CCC[C@H]1C(=O)N[C@@H](Cc1c[nH]c2ccccc12)C(=O)N[C@H](C(N)=O)[C@@H](C)O)[C@@H](C)O)[C@@H](C)O (H-ADTTHHRPWT-NH2) ?
a: active

q: Could you kindly confirm the outcome this assay logged for CC(C)C[C@H](N)C(=O)N[C@@H](C)C(=O)N[C@@H](CC(=O)O)C(=O)N[C@H](C(=O)N[C@H](C(=O)N[C@@H](Cc1c[nH]cn1)C(=O)N[C@@H](Cc1c[nH]cn1)C(=O)N[C@@H](CCCNC(=N)N)C(=O)N1CCC[C@H]1C(=O)N[C@@H](Cc1c[nH]c2ccccc12)C(=O)N[C@H](C(N)=O)[C@@H](C)O)[C@@H](C)O)[C@@H](C)O (H-LADTTHHRPWT-NH2) ?
a: active

q: Could you kindly confirm the outcome this assay logged for C[C@@H](O)[C@@H]1NC(=O)[C@H](Cc2c[nH]c3ccccc23)NC(=O)[C@@H]2CCCN2C(=O)[C@H](CCCNC(=N)N)NC(=O)[C@H](Cc2c[nH]cn2)NC(=O)[C@H](CCCCN)NC(=O)[C@H]([C@@H](C)O)NC1=O (cyclo(HRPWTTK)) ?
a: active

--- query ---
q: Could you kindly confirm the outcome this assay logged for C[C@@H](O)[C@H](N)C(=O)N[C@@H](Cc1c[nH]cn1)C(=O)N[C@@H](Cc1c[nH]cn1)C(=O)N[C@@H](CCCCN)C(=O)N1CCC[C@H]1C(=O)N[C@@H](Cc1c[nH]c2ccccc12)C(=O)N[C@H](C(N)=O)[C@@H](C)O (H-THHKPWT-NH2) ?
a: inactive

The reported measurements were obtained from ChEMBL document CHEMBL5338820.
